# Tested on: rat small-intestinal brush border membrane vesicles
# test method notes: Inhibitory effect on 33PO4 uptake into rat small-intestinal brush border membrane vesicles (rapid filtration method)
# Type: biochemical, Wistar female rat
# protocol conditions: 1 µM test compound; 33PO4 uptake into rat small-intestinal BBMVs, 60 seconds
# Rate of uptake inhibition (%) (1 µM) >= 70% gives true (1), anything below gives false (0)

[[record]]
smiles_code = "CN1N(Cc2cccc(F)c2F)C(=O)C(C(=O)Nc2ccc(C(F)(F)F)cc2-c2cc(C#N)ncn2)=C(O)C1(C)C"
tgt = "rat small-intestinal brush border membrane vesicles"
group = "false (0)"

[[record]]
smiles_code = "CC(C)[C@H]1C(O)=C(C(=O)Nc2cc(F)c(Br)c(F)c2)C(=O)N(Cc2cccc(F)c2F)N1C"
tgt = "rat small-intestinal brush border membrane vesicles"
group = "false (0)"

[[record]]
smiles_code = "COc1cc(CN2C(=O)C(C(=O)Nc3ccc(C(F)(F)F)cc3-c3ccc(C(F)(F)F)nc3)=C(O)[C@@]3(C)CCCN23)cc(OC)c1"
tgt = "rat small-intestinal brush border membrane vesicles"
group = "true (1)"

[[record]]
smiles_code = "CN1N(Cc2ccc(OCCCOC[C@H](O)CO)c(F)c2F)C(=O)C(C(=O)Nc2ccc(C(F)(F)F)cc2-c2ccc(C(F)(F)F)nc2)=C(O)C12CCC2"
tgt = "rat small-intestinal brush border membrane vesicles"
group = "true (1)"

[[record]]
smiles_code = "CSc1ccc(-c2cc(C(F)(F)F)ccc2NC(=O)C2=C(O)[C@@]3(C)CCCN3N(Cc3ccc(OCCN4CCOCC4)c(F)c3F)C2=O)cn1"
tgt = "rat small-intestinal brush border membrane vesicles"
group = "true (1)"

